These entries and their values trace back to ChEMBL document CHEMBL5550107.

tested_on: Protein Aster-A (Homo sapiens)
Sequence (Q96CP6 whole entry): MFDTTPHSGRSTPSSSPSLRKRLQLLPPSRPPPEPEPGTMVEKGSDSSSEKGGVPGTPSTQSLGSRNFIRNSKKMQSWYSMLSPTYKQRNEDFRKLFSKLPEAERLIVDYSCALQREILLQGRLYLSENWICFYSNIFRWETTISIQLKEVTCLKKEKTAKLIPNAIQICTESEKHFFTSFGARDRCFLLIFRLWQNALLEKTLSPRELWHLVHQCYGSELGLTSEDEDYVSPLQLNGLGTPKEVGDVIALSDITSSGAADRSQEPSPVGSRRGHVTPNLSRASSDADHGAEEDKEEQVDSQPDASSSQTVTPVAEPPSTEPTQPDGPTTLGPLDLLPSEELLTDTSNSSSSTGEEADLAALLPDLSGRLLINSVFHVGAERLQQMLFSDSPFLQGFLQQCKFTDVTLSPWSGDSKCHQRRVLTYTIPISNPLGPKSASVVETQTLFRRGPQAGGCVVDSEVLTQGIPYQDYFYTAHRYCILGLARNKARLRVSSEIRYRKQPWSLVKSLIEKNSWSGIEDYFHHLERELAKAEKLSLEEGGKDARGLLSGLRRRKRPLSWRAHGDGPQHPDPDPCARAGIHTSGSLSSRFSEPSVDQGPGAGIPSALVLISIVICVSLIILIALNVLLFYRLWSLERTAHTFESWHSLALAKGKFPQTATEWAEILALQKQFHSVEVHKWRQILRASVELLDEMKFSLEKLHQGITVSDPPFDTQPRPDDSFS
method_description: Displacement of 22-NBD-Chol from aster A (unknown origin) by fluorescence polarization method
I'd appreciate it if you could supply pIC50 values for the items below.
pIC50 is a log-scale quantity: -log10 of the concentration expressed in molar.

Name the recorded pIC50 for "Cc1ncsc1-c1ccc(CNC(=O)[C@H]2C[C@H](O)CN2C(=O)[C@@H](NC(=O)CCCCCCNC(=O)c2ccc(C(=O)Nc3nc4c(s3)CN(C(=O)OC(C)(C)C)CC4)cc2)C(C)(C)C)cc1" . 5.33

Name the recorded pIC50 for "CC(C)Oc1ccc(C(=O)Nc2nc3c(s2)CN(C(=O)OC(C)(C)C)CC3)cc1" . 5.71

Name the recorded pIC50 for "Cc1ncsc1-c1ccc(CNC(=O)[C@H]2C[C@H](O)CN2C(=O)[C@@H](NC(=O)COCCOCCNC(=O)c2ccc(C(=O)Nc3nc4c(s3)CN(C(=O)OC(C)(C)C)CC4)cc2)C(C)(C)C)cc1" . 5.43

---

tested_on: Protein Aster-A (Homo sapiens)
method_description: Binding affinity to aster A (unknown origin) assessed as change in fluorescence intensity
Quick rule for you: Kd under 90 nM gets y, anything else gets n.

# TODO verify Kd < 90 nM strictly for this molecule: Nc1cccc2c1C(=O)N(C1CCC(=O)NC1=O)C2=O (centres undefined) [POMALIDOMIDE] n

# TODO verify Kd < 90 nM strictly for this molecule: CC(C)(C)OC(=O)N1CCC2N=C(NC(=O)c3ccc(C(=O)NCCCCCCCCCCNc4cccc5c4C(=O)N(C4CCC(=O)NC4=O)C5=O)cc3)SC2C1 (centres undefined) n

# TODO verify Kd < 90 nM strictly for this molecule: CC(C)(C)OC(=O)N1CCC2N=C(NC(=O)c3ccc(C(=O)NCCCOCCOCCCNc4cccc5c4C(=O)N(C4CCC(=O)NC4=O)C5=O)cc3)SC2C1 (centres undefined) n

# TODO verify Kd < 90 nM strictly for this molecule: CC(C)(C)OC(=O)NCCOCCOCCNc1cccc2c1C(=O)N(C1CCC(=O)NC1=O)C2=O (centres undefined) n

# TODO verify Kd < 90 nM strictly for this molecule: CC(C)(C)OC(=O)N1CCC2N=C(NC(=O)c3ccc(C(=O)NCCCOCCCCOCCCNc4cccc5c4C(=O)N(C4CCC(=O)NC4=O)C5=O)cc3)SC2C1 (centres undefined) y

# TODO verify Kd < 90 nM strictly for this molecule: CC(C)(C)OC(=O)N1CCC2N=C(NC(=O)c3ccc(C(=O)NCCCOCCOCCOCCCNc4cccc5c4C(=O)N(C4CCC(=O)NC4=O)C5=O)cc3)SC2C1 (centres undefined) y

# TODO verify Kd < 90 nM strictly for this molecule: CC(C)(C)OC(=O)N1CCC2N=C(NC(=O)c3ccc(C(=O)NCCCCCCNc4cccc5c4C(=O)N(C4CCC(=O)NC4=O)C5=O)cc3)SC2C1 (centres undefined) n

# TODO verify Kd < 90 nM strictly for this molecule: CC(C)(C)OC(=O)N1CCC2N=C(NC(=O)c3ccc(C(=O)NCCOCCOCCNc4cccc5c4C(=O)N(C4CCC(=O)NC4=O)C5=O)cc3)SC2C1 (centres undefined) n

---

tested_on: Protein Aster-A (Homo sapiens) (UniProt Q96CP6)
method_description: Binding affinity to aster A (unknown origin) assessed as change in melting temperature by differential scanning fluorimetry analysis
assay_metric: ΔTm (°C)
Number in °C, nothing else.

Name the recorded ΔTm for CC(C)(C)OC(=O)N1CCC2N=C(NC(=O)c3ccc(C(=O)NCCCCCCCCCCNc4cccc5c4C(=O)N(C4CCC(=O)NC4=O)C5=O)cc3)SC2C1 (stereo not drawn) . 1.2

Name the recorded ΔTm for CC12CCC(O)CC1CCc1cnn(-c3ccccc3F)c12 (stereo not drawn) . 0.2

Name the recorded ΔTm for CC(C)(C)OC(=O)N1CCC2N=C(NC(=O)c3ccc(C(=O)NCCCOCCCCOCCCNc4cccc5c4C(=O)N(C4CCC(=O)NC4=O)C5=O)cc3)SC2C1 (stereo not drawn) . 5.7

Name the recorded ΔTm for CC(C)(C)OC(=O)N1CCC2N=C(NC(=O)c3ccc(C(=O)NCCCOCCOCCOCCCNc4cccc5c4C(=O)N(C4CCC(=O)NC4=O)C5=O)cc3)SC2C1 (stereo not drawn) . 5.8

Name the recorded ΔTm for Nc1cccc2c1C(=O)N(C1CCC(=O)NC1=O)C2=O (stereo not drawn) [POMALIDOMIDE] . 0.1

Name the recorded ΔTm for CC(C)(C)OC(=O)N1CCC2N=C(NC(=O)c3ccc(C(=O)NCCOCCOCCOCCNc4cccc5c4C(=O)N(C4CCC(=O)NC4=O)C5=O)cc3)SC2C1 (stereo not drawn) . 4.9

Name the recorded ΔTm for "Cc1ncsc1-c1ccc(CNC(=O)[C@H]2C[C@H](O)CN2C(=O)[C@@H](NC(=O)COCCOCCNC(=O)c2ccc(C(=O)Nc3nc4c(s3)CN(C(=O)OC(C)(C)C)CC4)cc2)C(C)(C)C)cc1" . 4.4

Name the recorded ΔTm for CC(C)(C)OC(=O)N1CCC2N=C(NC(=O)c3ccc(C(=O)NCCCOCCOCCCNc4cccc5c4C(=O)N(C4CCC(=O)NC4=O)C5=O)cc3)SC2C1 (stereo not drawn) . 5
